The sequences listed here are annotated with their switch fluorescence ratio.
test system: ATP; assay: switch fluorescence ratio, 500 uM ATP over buffer (Cy3 cluster intensity, sum of 5 cycles each) (fold (ratio)); higher = stronger signal-on switching upon ATP binding; sequences stand for … in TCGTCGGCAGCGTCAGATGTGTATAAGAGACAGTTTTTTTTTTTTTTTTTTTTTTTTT…TC; conditions: aptamer strand: ATP DNA aptamer (quencher-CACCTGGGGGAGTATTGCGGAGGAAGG + anchor), 100 nM annealed; ATP concentration: 500 uM;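 further: ATP exposure 15 min at 22 °C before imaging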
Measurement label: switch fluorescence ratio

# Construct sequence, Target or system, Measurement label, Result value
rows = [
    ("CTTGAAGGGA", "ATP", "switch fluorescence ratio", 0.995),
    ("TGGGGAAAAT", "ATP", "switch fluorescence ratio", 1.03),
    ("TATTATTCTG", "ATP", "switch fluorescence ratio", 0.986),
    ("AAGCTGCCTG", "ATP", "switch fluorescence ratio", 1.02),
    ("TTATCTCACT", "ATP", "switch fluorescence ratio", 1.06),
    ("GGGGCCGTTG", "ATP", "switch fluorescence ratio", 0.949),
    ("GCTGTAGTTG", "ATP", "switch fluorescence ratio", 0.993),
    ("TTTACAAGT", "ATP", "switch fluorescence ratio", 0.982),
    ("GGACCGTTTT", "ATP", "switch fluorescence ratio", 0.998),
    ("TGTGAGGGCG", "ATP", "switch fluorescence ratio", 1.06),
    ("ACCATTATTT", "ATP", "switch fluorescence ratio", 1.03),
    ("ACGTAGTGGC", "ATP", "switch fluorescence ratio", 1.04),
    ("GCCTGGGAAG", "ATP", "switch fluorescence ratio", 0.976),
    ("GACGGGGCTA", "ATP", "switch fluorescence ratio", 1.01),
    ("GGCCCGTACT", "ATP", "switch fluorescence ratio", 1.04),
    ("GTTTGATCGG", "ATP", "switch fluorescence ratio", 0.97),
    ("TTAGTAGTTT", "ATP", "switch fluorescence ratio", 0.976),
    ("ATTCAGAAGG", "ATP", "switch fluorescence ratio", 1.01),
    ("CTTGTCGTGC", "ATP", "switch fluorescence ratio", 0.995),
    ("ACTTTGAAGT", "ATP", "switch fluorescence ratio", 0.993),
    ("TAGGGGGTTA", "ATP", "switch fluorescence ratio", 0.992),
    ("CGGGGATTGC", "ATP", "switch fluorescence ratio", 1.01),
    ("GCAGCCAAGC", "ATP", "switch fluorescence ratio", 1.14),
    ("TCATGATATG", "ATP", "switch fluorescence ratio", 0.978),
    ("CTTGTGACAC", "ATP", "switch fluorescence ratio", 1.02),
    ("GGGGATCCCC", "ATP", "switch fluorescence ratio", 1.03),
    ("TTGTGGACTT", "ATP", "switch fluorescence ratio", 1),
    ("ATGCTCGGGG", "ATP", "switch fluorescence ratio", 1),
    ("TTCTCTAGGG", "ATP", "switch fluorescence ratio", 0.99),
    ("GTCGGGGAAG", "ATP", "switch fluorescence ratio", 0.958),
    ("AGGGTCTCGT", "ATP", "switch fluorescence ratio", 1.01),
    ("GCTGTACTCA", "ATP", "switch fluorescence ratio", 1.43),
    ("ATATAGAAAG", "ATP", "switch fluorescence ratio", 1.02),
    ("GACGTACTCA", "ATP", "switch fluorescence ratio", 1.51),
    ("AAATCGGCTC", "ATP", "switch fluorescence ratio", 0.989),
    ("AGCTGATACG", "ATP", "switch fluorescence ratio", 1.31),
    ("TGGCTTAGGA", "ATP", "switch fluorescence ratio", 0.979),
    ("TAATAGGTTC", "ATP", "switch fluorescence ratio", 0.972),
    ("TCGGTCAAGG", "ATP", "switch fluorescence ratio", 0.949),
    ("CTAGAGGGGA", "ATP", "switch fluorescence ratio", 1.14),
    ("TTTAGGGGAG", "ATP", "switch fluorescence ratio", 0.994),
    ("AGTTCAATT", "ATP", "switch fluorescence ratio", 0.997),
    ("TATTGCGCTC", "ATP", "switch fluorescence ratio", 1.09),
]
